Every entry's value here was drawn from patent US20180171001A1.

Target: Env of HIV-1 strain 3365.v2.c20 (HIV-1)
Assay: cell-based or functional assay
endpoint: neutralization IC50

Task: What does the record list as neutralization IC50 for γ23κ5 (antibody, V domains shown) VH: QIHLVQSGTEVKKPGSSVTVSCKAYGVNTFGLYAVNWVRQAPGQSLEYIGQIWRWKSSASHHFRGRVIISAVDLTGSSPPISSLEIKNLTSDDTAVYFCTTTSTSDYWSGLHHDGVMAFSSWGQGTLISVSA VL: DIQMTQSPSTLSASTGDTVRISCRASQSITGNWVAWYQQRPGKAPRLLIYRGAALLGGVPSRFRGSAAGTDFTLTIGNLQAEDFGTFYCQQYDTYPGTFGQGTKVEVKR ?
Output: > 15 µg/mL

Task: Would you kindly share the measured neutralization IC50 for γ52κ11 (antibody, V domains shown) VH: QIHLVQSGTEVKKPGSSVTVSCKAYGVNTFGLYAVNWVRQAPGQSLEYIGQIWRWKSSASHHFRGRVLISAVDLTGSSPPISSLEIKNLTSDDTAVYFCTTTSTYDRWSGLHHDGVMAFSSWGQGTLISVSA VL: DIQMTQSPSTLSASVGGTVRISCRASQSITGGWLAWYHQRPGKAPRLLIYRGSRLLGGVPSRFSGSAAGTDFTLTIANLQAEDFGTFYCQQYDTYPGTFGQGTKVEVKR ?
Output: > 15 µg/mL

Task: Which neutralization IC50 is listed for 8ANC3044 (antibody, V domains shown) VH: QIHLVQSGTEVRKPGSSVTVSCKAYGVNTFGLYAVNWVRQAPGQSLEYIGQIWRWKSSASHHFRGRVLISAVDLTGSSPPISSLEIKNLTSDDTAVYFCTTTSTYDKWSGLHHDGVMAFSSWGQGTLISVSA VL: DIQMTQSPSTLSASIGDTVRISCRASQSITGNWVAWYQQRPGKAPRLLIYRGAALLGGVPSRFSGSAAGTDFTLTIGNLQTEDFGTFYCQQYDTYPGTFGQGTKVEVKR ?
Output: > 30 µg/mL

Task: Item γ59κ5 (antibody, V domains shown) VH: QIHLVQSGTEVKKPGSSVTVSCKAYGVNTFGLYAVNWVRQAPGQGLEYIGQIWRWKSSASHHFRGRVLISAVDLTGSSPPISSLEIKNVTSDDTAVYFCTTTSTYDEWSDLHHDGVMAFSSWGQGTLISVSA VL: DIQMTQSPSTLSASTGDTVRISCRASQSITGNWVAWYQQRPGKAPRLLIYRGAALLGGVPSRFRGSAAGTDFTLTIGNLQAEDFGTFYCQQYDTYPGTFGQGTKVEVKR has what recorded neutralization IC50?
Output: > 15 µg/mL

Task: Sample 8ANC3630 (antibody, V domains shown) VH: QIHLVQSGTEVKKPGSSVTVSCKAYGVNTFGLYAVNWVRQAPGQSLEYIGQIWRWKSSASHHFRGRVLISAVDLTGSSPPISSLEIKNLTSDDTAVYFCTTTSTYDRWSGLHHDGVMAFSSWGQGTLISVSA VL: DIQMTQSPSTLSASIGDTVRISCRASQSITGGWLAWYHQRPGKAPRLLIYRGSRLLGGVPSRFSGSAAGTDFTLTIANLQAEDFGTFYCQQYDTYPGTFGQGTKVEVKR — what was its neutralization IC50?
Output: > 30 µg/mL
